Test: Oral bioavailability in human at 5 mg/kg
Assay type: ADME, organism-based
Conditions: in vivo
property: bioavailability
Answer format reminder: number followed by unit.

Q: Which bioavailability is reported for this molecule? O=C(c1ccc(F)c(F)c1Nc1ccc(I)cc1F)N1CC(O)([C@@H]2CCCCN2)C1
A: 77%

###

Assay: AUC (0 to infinity) in mouse at 50 mg/kg, po
Type: ADME, organism-based
Details: in vivo
property: AUC(0-inf) (ng·h/mL)
Give bare numbers, in ng·h/mL.

Q: Which AUC(0-inf) is reported for this molecule? COc1cc(-c2ccc3[nH]nc(/C=C/c4ccc(OC)c(OC)c4)c3c2)ccc1O
A: 300

###

Molecular target: Tyrosine-protein kinase Lck (Homo sapiens, UniProt P06239)
Sequence (P06239 whole entry): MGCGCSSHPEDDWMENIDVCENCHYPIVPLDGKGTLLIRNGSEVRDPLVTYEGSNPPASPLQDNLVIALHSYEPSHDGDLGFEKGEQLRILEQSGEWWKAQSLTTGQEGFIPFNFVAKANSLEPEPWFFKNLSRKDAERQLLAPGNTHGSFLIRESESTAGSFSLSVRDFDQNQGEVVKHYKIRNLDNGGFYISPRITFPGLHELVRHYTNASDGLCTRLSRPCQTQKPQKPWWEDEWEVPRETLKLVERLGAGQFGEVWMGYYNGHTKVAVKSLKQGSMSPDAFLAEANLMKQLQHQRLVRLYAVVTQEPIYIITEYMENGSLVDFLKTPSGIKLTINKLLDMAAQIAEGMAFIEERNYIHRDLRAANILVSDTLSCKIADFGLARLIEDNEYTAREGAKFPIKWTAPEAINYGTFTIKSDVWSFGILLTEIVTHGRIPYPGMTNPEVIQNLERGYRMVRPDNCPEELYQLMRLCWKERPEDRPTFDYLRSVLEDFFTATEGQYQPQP
Experiment: Inhibition of human LCK
property: IC50 (nM)
Give bare numbers, in nM.

Cc1cccc(Cl)c1NC(=O)c1ccc2nc(Nc3cccc(NCCO)n3)sc2c1 : 500

In the following, a different compound is considered.
Q: I'm curious: which IC50 was measured for Cc1cc(Nc2ncc(C(=O)Nc3c(C)cccc3Cl)s2)nc(C)n1 tested on Tyrosine-protein kinase Lck (Homo sapiens, UniProt P06239)?
A: 1000

###

Test: Half life in rat at 5 mg/kg, po
Type: ADME, organism-based
Details: in vivo
property: half-life (min)
Give bare numbers, in min.

Q: Which half-life is reported for this molecule? COc1cc2/c(=N/c3ccc(Br)cc3F)nc[nH]c2cc1OCC1CCN(C)CC1
A: 900

###

System: MDA-MB-231
Test: Antiproliferative activity against human MDA-MB-231 cells
Format: functional, cell-based
property: IC50 (nM)
One number for each entry, in nM.

Q: Which IC50 is reported for this compound? Cc1cc(Nc2ncc(C(=O)Nc3c(C)cccc3Cl)s2)nc(C)n1
A: 12

###

Target: Tyrosine-protein kinase Yes (Homo sapiens, UniProt P07947)
Sequence (P07947 whole entry): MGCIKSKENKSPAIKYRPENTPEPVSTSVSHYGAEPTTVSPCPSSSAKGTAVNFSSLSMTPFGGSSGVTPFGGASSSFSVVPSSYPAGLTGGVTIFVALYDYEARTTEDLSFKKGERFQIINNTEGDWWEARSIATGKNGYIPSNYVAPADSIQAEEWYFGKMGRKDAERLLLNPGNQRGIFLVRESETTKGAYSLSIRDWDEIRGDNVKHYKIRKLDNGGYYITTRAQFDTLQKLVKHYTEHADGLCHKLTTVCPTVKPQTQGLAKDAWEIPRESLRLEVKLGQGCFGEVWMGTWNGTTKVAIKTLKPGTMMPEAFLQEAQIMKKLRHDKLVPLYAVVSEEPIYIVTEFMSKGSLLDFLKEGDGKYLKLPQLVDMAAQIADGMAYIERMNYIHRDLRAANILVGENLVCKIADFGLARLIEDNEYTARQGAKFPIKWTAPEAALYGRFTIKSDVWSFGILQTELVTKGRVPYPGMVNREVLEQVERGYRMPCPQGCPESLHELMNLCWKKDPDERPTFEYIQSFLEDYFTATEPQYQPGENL
property: IC50 (nM)
Numbers only, in nM.

Q: I'm curious: which IC50 was measured for Cc1cc(Nc2ncc(C(=O)Nc3c(C)cccc3Cl)s2)nc(C)n1 tested on Tyrosine-protein kinase Yes (Homo sapiens, UniProt P07947)?
A: 0.5

###

Target: Vascular endothelial growth factor receptor 2 (Homo sapiens)
Sequence (P35968 whole entry): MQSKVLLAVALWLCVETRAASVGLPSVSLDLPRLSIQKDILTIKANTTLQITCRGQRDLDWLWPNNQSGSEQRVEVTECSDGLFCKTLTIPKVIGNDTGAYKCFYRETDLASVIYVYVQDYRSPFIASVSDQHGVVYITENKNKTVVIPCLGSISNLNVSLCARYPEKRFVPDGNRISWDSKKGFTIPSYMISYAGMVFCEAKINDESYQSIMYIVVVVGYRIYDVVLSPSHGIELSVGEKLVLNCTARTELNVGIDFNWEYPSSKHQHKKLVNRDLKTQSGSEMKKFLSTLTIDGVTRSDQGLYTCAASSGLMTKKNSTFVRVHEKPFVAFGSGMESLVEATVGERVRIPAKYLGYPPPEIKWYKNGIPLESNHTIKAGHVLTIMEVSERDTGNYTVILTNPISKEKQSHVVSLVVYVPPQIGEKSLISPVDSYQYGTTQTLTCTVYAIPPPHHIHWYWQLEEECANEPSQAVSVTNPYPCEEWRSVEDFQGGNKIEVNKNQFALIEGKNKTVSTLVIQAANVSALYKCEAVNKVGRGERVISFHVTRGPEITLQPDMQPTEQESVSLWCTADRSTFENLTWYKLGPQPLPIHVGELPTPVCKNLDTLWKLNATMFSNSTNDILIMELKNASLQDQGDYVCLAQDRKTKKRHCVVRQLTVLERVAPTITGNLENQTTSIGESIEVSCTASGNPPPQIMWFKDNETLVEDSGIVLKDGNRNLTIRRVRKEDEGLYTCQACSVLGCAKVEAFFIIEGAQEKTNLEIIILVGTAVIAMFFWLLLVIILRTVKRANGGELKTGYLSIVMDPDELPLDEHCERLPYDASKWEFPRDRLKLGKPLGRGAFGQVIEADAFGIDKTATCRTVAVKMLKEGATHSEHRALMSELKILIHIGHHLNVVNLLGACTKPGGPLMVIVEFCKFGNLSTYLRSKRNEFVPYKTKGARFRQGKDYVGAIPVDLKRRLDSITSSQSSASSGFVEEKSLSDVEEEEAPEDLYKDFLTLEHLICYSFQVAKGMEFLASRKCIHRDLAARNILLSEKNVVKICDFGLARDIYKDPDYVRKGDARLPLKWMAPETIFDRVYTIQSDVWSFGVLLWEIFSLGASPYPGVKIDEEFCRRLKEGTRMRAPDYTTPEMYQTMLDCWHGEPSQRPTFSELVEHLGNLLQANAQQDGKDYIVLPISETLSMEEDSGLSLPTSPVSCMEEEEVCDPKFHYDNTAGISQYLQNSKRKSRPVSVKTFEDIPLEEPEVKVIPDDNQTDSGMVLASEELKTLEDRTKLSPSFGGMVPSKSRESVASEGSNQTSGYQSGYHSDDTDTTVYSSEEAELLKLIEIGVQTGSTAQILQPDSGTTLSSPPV
Assay: Inhibition of VEGFR-2 (unknown origin) expressed in NIH3T3 cells assessed as reduction in VEGFA induced protein phosphorylation
Type: cell-based
property: IC50 (nM)
Answers are plain numbers, in nM.

Q: I'm curious: which IC50 was measured for Cc1c[nH]c(/C=C2\C(=O)Nc3ccccc32)c1CCC(=O)O tested on Vascular endothelial growth factor receptor 2 (Homo sapiens)?
A: 400

###

Molecular target: Fibroblast growth factor receptor 1 (Homo sapiens, UniProt P11362)
Sequence (P11362 whole entry): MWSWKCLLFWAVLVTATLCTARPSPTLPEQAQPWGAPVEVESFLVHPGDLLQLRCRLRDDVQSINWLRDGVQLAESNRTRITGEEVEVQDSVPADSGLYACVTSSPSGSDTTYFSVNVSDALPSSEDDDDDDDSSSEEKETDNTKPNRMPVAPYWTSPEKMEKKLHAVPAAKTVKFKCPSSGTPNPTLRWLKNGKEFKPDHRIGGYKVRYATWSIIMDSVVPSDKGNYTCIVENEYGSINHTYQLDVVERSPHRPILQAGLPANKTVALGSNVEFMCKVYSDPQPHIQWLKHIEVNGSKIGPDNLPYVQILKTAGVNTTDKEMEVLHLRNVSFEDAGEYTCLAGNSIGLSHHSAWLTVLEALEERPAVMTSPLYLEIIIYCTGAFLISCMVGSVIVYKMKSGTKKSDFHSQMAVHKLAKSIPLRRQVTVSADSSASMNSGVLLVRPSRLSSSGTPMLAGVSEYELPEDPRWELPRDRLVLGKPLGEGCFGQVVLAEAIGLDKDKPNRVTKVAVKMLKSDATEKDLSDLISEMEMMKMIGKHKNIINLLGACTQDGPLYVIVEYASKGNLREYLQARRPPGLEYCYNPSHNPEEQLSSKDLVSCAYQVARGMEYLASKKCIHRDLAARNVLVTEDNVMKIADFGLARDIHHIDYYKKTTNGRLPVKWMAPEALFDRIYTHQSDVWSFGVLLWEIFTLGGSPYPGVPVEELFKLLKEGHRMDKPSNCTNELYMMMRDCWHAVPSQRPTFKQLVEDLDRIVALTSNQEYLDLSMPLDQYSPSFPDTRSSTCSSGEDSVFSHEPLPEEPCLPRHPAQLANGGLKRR
property: IC50 (nM)
Answers are plain numbers, in nM.

Q: Which IC50 is reported for this compound? COc1cc(/C=C/c2n[nH]c3ccccc23)ccc1O
A: 1900

###

Test: Solubility of compound in PBS at pH 7.4
Format: physicochemical
property: solubility (µM)
One number for each entry, in µM.

Q: Which solubility is reported for this compound? CC(=O)Nc1cccc(-n2c(=O)n(C3CC3)c(=O)c3c(Nc4ccc(I)cc4F)n(C)c(=O)c(C)c32)c1 [TRAMETINIB]
A: 5.3

###

Assay: Half life in Sprague-Dawley rat at 5 mg/kg, iv by LC-MS analysis
Type: ADME, organism-based
Conditions: in vivo
property: half-life (h)
Give bare numbers, in h.

Q: Which half-life is reported for this compound? COc1cc2c(Nc3ccc(Br)cc3F)ncnc2cc1OCCn1ccnn1 [ZD-4190 FREE BASE]
A: 1.3

###

Target: Proto-oncogene tyrosine-protein kinase Src (Homo sapiens, UniProt P12931)
Sequence (P12931 2-536 limits assumed): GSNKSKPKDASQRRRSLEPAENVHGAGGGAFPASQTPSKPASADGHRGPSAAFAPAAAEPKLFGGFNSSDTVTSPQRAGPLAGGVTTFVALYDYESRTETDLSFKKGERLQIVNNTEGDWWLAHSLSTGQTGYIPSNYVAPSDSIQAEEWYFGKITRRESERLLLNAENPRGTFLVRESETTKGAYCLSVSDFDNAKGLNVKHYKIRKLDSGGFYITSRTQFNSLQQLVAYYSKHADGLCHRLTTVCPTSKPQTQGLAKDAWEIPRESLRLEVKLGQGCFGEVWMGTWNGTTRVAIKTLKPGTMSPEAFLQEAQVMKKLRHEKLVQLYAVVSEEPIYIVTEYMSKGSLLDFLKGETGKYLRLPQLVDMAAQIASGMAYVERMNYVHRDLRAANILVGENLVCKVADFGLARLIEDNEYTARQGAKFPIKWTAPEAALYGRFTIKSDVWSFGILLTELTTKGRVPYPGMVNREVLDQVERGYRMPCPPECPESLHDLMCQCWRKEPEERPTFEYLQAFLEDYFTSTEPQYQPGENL
property: IC50 (µM)
Give bare numbers, in µM.

Observe how each entry below is paired with its result.
Cc1ccc(NC(=O)c2cc(C(F)(F)F)ccn2)cc1C#Cn1cnc2c(NC3CC3)ncnc21 : 0.524
Cc1ccc(NC(=O)c2cc(C(C)(C)C)on2)cc1/C=C/n1cnc2c(NC3CC3)ncnc21 : 15.5

In the following, a different compound is considered.
Q: Which IC50 is reported for this compound? Cc1ccc(NC(=O)c2cc(C(F)(F)F)ccn2)cc1/C=C/n1cnc2c(NC3CC3)ncnc21
A: 14.1

###

Experiment: Half life in mouse at 10 mg/kg, po by LC-MS/MS analysis
Format: ADME, organism-based
Conditions: in vivo
property: half-life (h)
Give bare numbers, in h.

// batch mode: one half-life value per listed entry
1. COc1cc2ncnc(Nc3cccc(C)c3)c2cc1OC
2. COc1cc2ncnc(Nc3ccc(F)c(Cl)c3)c2cc1OC

A:
1
3

###

Target: Proto-oncogene tyrosine-protein kinase Src (Homo sapiens, UniProt P12931)
Assay: Inhibition of SRC (unknown origin)
property: IC50
Answer format reminder: number followed by unit.

Q: Which IC50 is reported for this compound? Cc1cc(Nc2ncc(C(=O)Nc3c(C)cccc3Cl)s2)nc(C)n1
A: 0.5 nM

###

Test: Volume of distribution at steady state in Sprague-Dawley rat at 10 mg/kg, iv by LC-MS/MS analysis
Format: ADME, organism-based
Details: in vivo, read-out: Vdss
property: Vd (L/kg)
Numbers only, in L/kg.

Q: Which Vd is reported for this compound? Cc1nc(Nc2ncc(C(=O)Nc3c(C)cccc3Cl)s2)cc(N2CCN(CCO)CC2)n1 [DASATINIB ANHYDROUS]
A: 6.3

###

Voltage-gated inwardly rectifying potassium channel KCNH2 (Homo sapiens) IC50 data
Sequence (Q12809 whole entry): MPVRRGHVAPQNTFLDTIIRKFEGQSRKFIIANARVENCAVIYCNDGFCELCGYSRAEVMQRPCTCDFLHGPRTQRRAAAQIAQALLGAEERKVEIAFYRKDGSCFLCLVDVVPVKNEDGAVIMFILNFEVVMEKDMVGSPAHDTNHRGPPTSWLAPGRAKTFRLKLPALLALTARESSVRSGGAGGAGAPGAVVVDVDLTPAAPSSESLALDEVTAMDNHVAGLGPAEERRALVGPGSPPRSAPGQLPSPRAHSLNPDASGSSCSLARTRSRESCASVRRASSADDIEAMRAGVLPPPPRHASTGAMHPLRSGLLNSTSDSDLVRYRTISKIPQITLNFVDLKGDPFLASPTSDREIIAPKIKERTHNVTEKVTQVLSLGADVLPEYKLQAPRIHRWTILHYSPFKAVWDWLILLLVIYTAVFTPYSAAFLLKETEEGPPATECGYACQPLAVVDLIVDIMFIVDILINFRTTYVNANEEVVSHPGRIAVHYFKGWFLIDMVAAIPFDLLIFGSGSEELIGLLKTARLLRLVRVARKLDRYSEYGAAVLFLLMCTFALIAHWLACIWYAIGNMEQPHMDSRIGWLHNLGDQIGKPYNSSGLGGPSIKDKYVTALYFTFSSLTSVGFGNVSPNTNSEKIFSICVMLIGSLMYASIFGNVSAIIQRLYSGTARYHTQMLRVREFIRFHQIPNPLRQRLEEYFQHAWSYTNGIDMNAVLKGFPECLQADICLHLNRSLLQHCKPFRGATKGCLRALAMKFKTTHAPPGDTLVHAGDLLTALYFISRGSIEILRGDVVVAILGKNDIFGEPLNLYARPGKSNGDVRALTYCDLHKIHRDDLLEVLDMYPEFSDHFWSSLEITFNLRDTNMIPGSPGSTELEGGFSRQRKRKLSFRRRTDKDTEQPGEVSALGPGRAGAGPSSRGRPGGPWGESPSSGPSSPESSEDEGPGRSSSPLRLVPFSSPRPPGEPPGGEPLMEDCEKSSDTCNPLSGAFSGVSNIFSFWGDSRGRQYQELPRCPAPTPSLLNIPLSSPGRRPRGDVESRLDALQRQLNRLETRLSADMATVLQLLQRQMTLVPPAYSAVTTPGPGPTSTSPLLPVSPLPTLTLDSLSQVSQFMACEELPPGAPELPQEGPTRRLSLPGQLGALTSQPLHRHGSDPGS
One number for each entry, in µM.

Observe how each entry below is paired with its result.
C=CC(=O)Nc1cc(Nc2ncc(Cl)c(-c3cnn4ccccc34)n2)c(OC)cc1C(C)CCNC (stereo not drawn) : 6.7
C=CC(=O)Nc1cc(Nc2ncc(Cl)c(-c3cnn4ccccc34)n2)c(OC)cc1C1CC[C@@H](N(C)C)C1 (stereo partly drawn) : 5.6

Q: I'm curious: which IC50 was measured for C=CC(=O)Nc1cc(Nc2ncc(Cl)c(-c3cnn4ccccc34)n2)c(OC)cc1C1CC(N(C)C)C1 (stereo not drawn) tested on Voltage-gated inwardly rectifying potassium channel KCNH2 (Homo sapiens)?
A: 4

###

Target: Epidermal growth factor receptor (Homo sapiens, UniProt P00533)
property: IC50
Answer format reminder: number followed by unit.

Q: Which IC50 is reported for this compound? Cc1cccc(Nc2ncnc3ccc(N)cc23)c1
A: 50 nM

###

Assay: Oral bioavailability in human
Assay type: ADME, organism-based
Conditions: in vivo
property: bioavailability (%)
Answers are plain numbers, in %.

Q: Which bioavailability is reported for this compound? CC(=O)Nc1cccc(-n2c(=O)n(C3CC3)c(=O)c3c(Nc4ccc(I)cc4F)n(C)c(=O)c(C)c32)c1
A: 30

###

Test: Oral bioavailability in rat at 5 mg/kg measured for 24 hrs by LC-MS/MS analysis
Assay type: ADME, organism-based
Settings: in vivo
property: bioavailability

Q: Which bioavailability is reported for this compound? COc1cc2/c(=N/c3ccc(Br)cc3F)nc[nH]c2cc1OCC1CCN(C)CC1
A: > 50%

###

Assay: Oral bioavailability in dog at 5 mg/kg
Assay type: ADME, organism-based, Canis lupus familiaris
Details: in vivo
property: bioavailability

Q: Which bioavailability is reported for this molecule? COc1cc2c(Nc3ccc(Br)cc3F)ncnc2cc1OCCn1ccnn1 [ZD-4190 FREE BASE]
A: < 5%

###

Experiment: Aqueous solubility of compound at pH 7.4 by LC-MS/MS analysis
Type: physicochemical
Conditions: buffer
property: solubility (µM)
Numbers only, in µM.

C=CC(=O)Nc1cc(Nc2ncc(Cl)c(-c3cnn4ccccc34)n2)c(OC)cc1C(C)CCNC (stereo not drawn) : 222

// batch mode: one solubility value per listed entry
1. C=CC(=O)Nc1cc(Nc2ncc(Cl)c(-c3cnn4ccccc34)n2)c(OC)cc1C1CC[C@@H](N(C)C)C1 (stereo partly drawn)
2. C=CC(=O)Nc1cc(Nc2ncc(Cl)c(-c3cnn4ccccc34)n2)c(OC)cc1C1CC(N(C)C)C1 (stereo not drawn)

A:
1. 28
2. 43

###

Test: Solubility in PBS at pH 7.4 incubated for 24 hrs by HPLC analysis
Assay type: physicochemical
property: solubility at 24 h (µM)
Numbers only, in µM.

Q: Which solubility at 24 h is reported for this compound? COc1cc2/c(=N/c3ccc(Br)cc3F)nc[nH]c2cc1OCC1CCN(C)CC1
A: 330

###

Test: Oral bioavailability in Sprague-Dawley rat at 10 mg/kg by LC-MS analysis
Format: ADME, organism-based
Settings: in vivo
property: bioavailability (%)
Answers are plain numbers, in %.

Q: Which bioavailability is reported for this compound? Cc1nc(Nc2ncc(C(=O)Nc3c(C)cccc3Cl)s2)cc(N2CCN(CCO)CC2)n1 [DASATINIB ANHYDROUS]
A: 27

###

Tested on: KB
Test: cells
Conditions: Homo sapiens, 72 h
Hi there, I'd appreciate the recorded pIC50 for every entry that follows.
Give bare numbers, as −log10 of the molar value.

COc1cc2ncnc(Nc3cccc(C)c3)c2cc1OC : 7.30

In the following, a different compound is considered.
Q: Which pIC50 is reported for this compound? Cc1cccc(Nc2ncnc3ccc(N)cc23)c1
A: 6.00

Reference source for all entries: ChEMBL document CHEMBL6074624
